Field: interaction score. Provide a value for each of the binders that follow.
assay.target: T1, 4H342-bH
T1 chain: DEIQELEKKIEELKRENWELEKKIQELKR
assay.comment: two-hybrid library CCNG1;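 also: natural log of median RNA to DNA barcode read ratio; higher means stronger binding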
Could you keep your reply to the number by itself?

interaction score for DKIQELKKENEELEREIWELEKKNQELKR [4H2696-bH] is 0.972

The binder listed as DKIQELKKKNEELKRKNWELKKKIQELKR [4H3070-bH] has a reported interaction score of 1.49

Just so you know, measured interaction score for DEIQELEKEIEELERENWELEKENQELER [4H19-bH] came out at -0.785

get_value(item= DKIQELKKEIEELERKNWELKKENQELER [4H2619-bH] , readout=interaction score) returns 1.45

Sourced from paper PMC10397247
